Biological target: human MRGPRX2 (Homo sapiens, UniProt Q96LB1)
Sequence (Q96LB1 whole entry): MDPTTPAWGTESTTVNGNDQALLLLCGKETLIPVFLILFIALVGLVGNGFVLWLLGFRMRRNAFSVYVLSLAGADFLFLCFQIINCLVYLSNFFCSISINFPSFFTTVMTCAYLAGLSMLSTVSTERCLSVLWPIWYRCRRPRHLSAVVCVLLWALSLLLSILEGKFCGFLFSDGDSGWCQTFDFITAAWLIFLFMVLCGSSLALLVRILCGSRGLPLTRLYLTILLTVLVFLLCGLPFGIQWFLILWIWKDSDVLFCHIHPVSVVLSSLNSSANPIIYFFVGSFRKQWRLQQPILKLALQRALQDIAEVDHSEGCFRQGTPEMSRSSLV
Assay: MRGPRX2 IP-1 Gq HTRF assay in HEK293 cells stably expressing human MRGPRX2, Cortistatin-14 at EC75
Conditions: 2 hours at 37° C., cellular IP-1
Reported EC50 is given for each of the following molecules.

CS(=O)(=O)Nc1cccc(C(=O)N[C@H]2C[C@@H](Nc3cc(C(F)(F)F)nc4ccc(Cl)cc34)CN(CC(F)F)C2)c1 [Example 73]
< 100 nM
CC(=O)N1C[C@@H](NC(=O)c2ccc(C)nc2)C[C@@H](Nc2cc(C(F)(F)F)nc3ccc(Cl)cc23)C1 [Example 62]
100 to 1000 nM
CCn1cc(C(=O)N[C@H]2C[C@@H](Nc3cc(C(F)(F)F)nc4ccc(Cl)cc34)CN(C(C)=O)C2)cn1 [Example 31]
< 100 nM

Turning now to a further molecule:
Name the recorded EC50 for CC(=O)N1C[C@@H](NC(=O)c2cccc(C(C)(C)O)c2)C[C@@H](Nc2cc(C(F)(F)F)nc3ccc(Cl)cc23)C1 [Example 41] .
100 to 1000 nM

###

// reported EC50 for each item listed
Target: human MRGPRX2 (Homo sapiens)
Assay: MRGPRX2 IP-1 Gq HTRF assay in HEK293 cells stably expressing human MRGPRX2, Cortistatin-14 at EC75
Settings: 2 hours at 37° C., cellular IP-1

CC(=O)N1C[C@@H](NC(=O)c2cnn(C)c2)C[C@@H](Nc2cc(C(F)(F)F)nc3ccc(Cl)cc23)C1
< 100 nM

Item CC(=O)N1C[C@@H](NC(=O)c2ccc(F)cc2)C[C@@H](Nc2cc(C(F)(F)F)nc3ccc(Cl)cc23)C1 has what recorded EC50?
< 100 nM

What value of measured EC50 is listed for CS(=O)(=O)Nc1cccc(C(=O)N[C@H]2C[C@@H](Nc3cc(C(F)(F)F)nc4ccc(Cl)cc34)CN(S(C)(=O)=O)C2)c1 ?
100 to 1000 nM

Need EC50 of CS(=O)(=O)Nc1cccc(C(=O)N[C@H]2CC(Nc3cc(C(F)(F)F)nc4ccc(Cl)cc34)CN(C(=O)C3CC3)C2)c1 (stereo partly shown) , thanks.
100 to 1000 nM

Form field: reported EC50 of CC(=O)N1C[C@@H](NC(=O)c2cccc(F)c2)C[C@@H](Nc2cc(C(F)(F)F)nc3ccc(Cl)cc23)C1
< 100 nM

Could you tell me which EC50 is on file for CS(=O)(=O)Nc1cccc(C(=O)N[C@H]2C[C@@H](Nc3cc(C(F)(F)F)nc4ccc(Cl)cc34)CN(C(=O)c3ccccc3)C2)c1 ?
100 to 1000 nM

Look at this compound and give its reported EC50. COCC(=O)N1C[C@@H](NC(=O)c2cccc(NS(C)(=O)=O)c2)C[C@@H](Nc2cc(C(F)(F)F)nc3ccc(Cl)cc23)C1
< 100 nM

Which EC50 is reported for this compound? CN(C)C(=O)N1C[C@@H](NC(=O)c2cccc(NS(C)(=O)=O)c2)C[C@@H](Nc2cc(C(F)(F)F)nc3ccc(Cl)cc23)C1
100 to 1000 nM

Data request, read-out EC50, for CC(=O)N1C[C@@H](NC(=O)c2cccc(C(F)F)c2)C[C@@H](Nc2cc(C(F)(F)F)nc3ccc(Cl)cc23)C1
< 100 nM

// query EC50 value for entry CC(=O)N1C[C@@H](NC(=O)c2cccc(NS(C)(=O)=O)c2)C[C@@H](Nc2ccc(C#N)c(C(F)(F)F)c2)C1
> 1000 nM
